- target: µ-opioid receptor of the guinea pig ileum (GPI) (guinea pig)
- assay-explanation: cell-based or functional assay
Non-standard residues stand in square brackets, D forms with d. *: point of attachment. NH(1-Adamantyl) = C1C2CC3CC1CC(N*)(C2)C3; Dmt = Cc1cc(O)cc(C)c1C[C@H](N)C(=O)O; Tic = O=C(O)[C@@H]1Cc2ccccc2CN1; dTic = O=C(O)[C@H]1Cc2ccccc2CN1; NHtBu = CC(C)(C)N*
quantity: GPI ED50 (µM)
State just the number; it will be interpreted in µM.

Entry {N,N‑dimethyl}-[Dmt]-[dTic]-{NH(1-Adamantyl)} [N,N(Me)2-Dmt-D-Tic-NH-1-adamantane] : reported GPI ED50 = ? 4.48

Also, H-[Dmt]-[dTic]-{NH(1-Adamantyl)} [H-Dmt-D-Tic-NH-1-adamantane] please. 1.68

Moving on to H-[Dmt]-[Tic]-NHtBu (SMILES Cc1cc(O)cc(C)c1C[C@H](N)C(=O)N1Cc2ccccc2C[C@H]1C(=O)NC(C)(C)C) [H-Dmt-Tic-NH-tBu] 1.04
